Molecular target: IκBα ubiquitinating enzyme (SCF complex: ROC1, Cullin1, Skp1, His-TrCP1; with E1, UbcH5b) (Homo sapiens, UniProt P62877+P63208+Q13616+Q9Y297)
Construct: His (polyhistidine); made in house; host or cells: insect cells (baculovirus) for the SCF complex and His-E1; E. coli for His-UBCH5b
Sequence (Q9Y297 whole entry): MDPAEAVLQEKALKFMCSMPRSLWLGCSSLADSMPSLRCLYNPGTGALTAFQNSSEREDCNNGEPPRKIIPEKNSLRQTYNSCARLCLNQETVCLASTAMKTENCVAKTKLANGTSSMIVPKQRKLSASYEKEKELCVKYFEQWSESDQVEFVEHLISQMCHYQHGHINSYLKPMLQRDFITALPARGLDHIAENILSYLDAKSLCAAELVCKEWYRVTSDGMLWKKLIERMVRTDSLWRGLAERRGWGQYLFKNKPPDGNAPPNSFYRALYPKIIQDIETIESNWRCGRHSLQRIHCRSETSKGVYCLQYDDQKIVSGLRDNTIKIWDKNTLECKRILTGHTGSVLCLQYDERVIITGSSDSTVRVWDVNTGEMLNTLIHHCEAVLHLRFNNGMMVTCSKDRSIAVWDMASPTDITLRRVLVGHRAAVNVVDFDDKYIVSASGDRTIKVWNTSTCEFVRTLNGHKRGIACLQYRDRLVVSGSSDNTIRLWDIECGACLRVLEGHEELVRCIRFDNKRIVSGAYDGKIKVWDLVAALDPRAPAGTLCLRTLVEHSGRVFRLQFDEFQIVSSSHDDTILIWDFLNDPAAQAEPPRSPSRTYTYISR
Sequence (Q13616 whole entry): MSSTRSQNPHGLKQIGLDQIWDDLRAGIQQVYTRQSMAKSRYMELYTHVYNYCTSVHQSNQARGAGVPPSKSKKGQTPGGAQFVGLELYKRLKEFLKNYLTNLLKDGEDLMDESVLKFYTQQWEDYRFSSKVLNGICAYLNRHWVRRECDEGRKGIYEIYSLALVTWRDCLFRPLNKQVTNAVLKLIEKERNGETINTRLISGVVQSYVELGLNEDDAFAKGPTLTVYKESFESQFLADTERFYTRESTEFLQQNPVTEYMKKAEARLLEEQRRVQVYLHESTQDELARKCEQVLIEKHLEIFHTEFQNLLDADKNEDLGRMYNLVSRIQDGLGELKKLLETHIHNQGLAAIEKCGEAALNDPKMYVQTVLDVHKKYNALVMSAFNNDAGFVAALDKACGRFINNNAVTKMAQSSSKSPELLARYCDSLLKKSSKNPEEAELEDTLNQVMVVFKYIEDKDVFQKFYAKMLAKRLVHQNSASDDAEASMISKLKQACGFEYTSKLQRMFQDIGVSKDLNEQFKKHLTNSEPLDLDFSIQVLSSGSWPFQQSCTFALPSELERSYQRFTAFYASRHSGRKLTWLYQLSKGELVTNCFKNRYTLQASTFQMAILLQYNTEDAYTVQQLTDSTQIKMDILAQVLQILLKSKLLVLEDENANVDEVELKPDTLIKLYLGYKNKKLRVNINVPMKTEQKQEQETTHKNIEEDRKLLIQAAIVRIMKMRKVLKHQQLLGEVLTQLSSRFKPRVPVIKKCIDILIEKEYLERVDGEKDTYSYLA
Sequence (P63208 whole entry): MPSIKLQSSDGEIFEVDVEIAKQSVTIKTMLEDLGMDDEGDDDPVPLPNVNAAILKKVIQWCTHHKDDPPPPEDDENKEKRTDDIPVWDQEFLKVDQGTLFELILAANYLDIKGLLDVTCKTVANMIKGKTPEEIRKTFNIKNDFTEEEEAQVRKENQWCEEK
Sequence (P62877 whole entry): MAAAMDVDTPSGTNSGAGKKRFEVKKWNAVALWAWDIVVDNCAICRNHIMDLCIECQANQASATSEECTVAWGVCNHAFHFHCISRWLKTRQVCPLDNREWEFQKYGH
Assay: Measurement of ubiquitinating enzyme activity (IκBα ubiquitination, time-resolved fluorescence with Eu(K)-labeled ubiquitin and XL665-labeled anti-GST antibody)
Type: biochemical
Conditions: enzyme activity inhibition test, method (1), Table 5; read-out: EVALUATION
Entries annotated with measured IC50

>  <COMPOUND>
COc1ccc(C2=NN(c3ccc(C(=O)O)cc3)C(=O)/C2=C\c2ccc3c(c2)OCCO3)cc1OC

>  <IC50>
< 10 µM

$$$$
>  <COMPOUND>
COCC1=NN(c2ccccc2)C(=O)/C1=C\c1ccc(N2CCN(C(=O)OC)CC2)cc1

>  <IC50>
< 40 µM

$$$$
>  <COMPOUND>
O=C(O)c1ccc(N2N=C(c3ccoc3)/C(=C/c3nccs3)C2=O)cc1

>  <IC50>
10 to 20 µM

$$$$
>  <COMPOUND>
COCCC1=NN(c2cccc(C(=O)O)c2)C(=O)/C1=C\c1ccc(-c2ccccc2F)o1

>  <IC50>
< 40 µM

$$$$
>  <COMPOUND>
O=C(O)c1cccc(N2N=C(c3ccoc3)/C(=C/c3ccc(CO)o3)C2=O)c1

>  <IC50>
10 to 20 µM

$$$$
>  <COMPOUND>
O=C(O)c1ccc(N2N=C(c3ccoc3)/C(=C/c3ccc4[nH]ccc4c3)C2=O)cc1

>  <IC50>
< 10 µM

$$$$
>  <COMPOUND>
CC1=NN(c2cccc(C(=O)N3CCC(CO)CC3)c2)C(=O)/C1=C\c1ccc2c(c1)OCCO2

>  <IC50>
< 40 µM

$$$$
>  <COMPOUND>
COc1ccc(C2=NN(c3ccccc3)C(=O)C2=Cc2ccc(CO)o2)cc1OC

>  <IC50>
< 40 µM

$$$$
>  <COMPOUND>
COCC1=NN(c2ccccc2)C(=O)/C1=C\c1ccc(OCc2ccccc2)c(OC)c1

>  <IC50>
10 to 20 µM

$$$$
>  <COMPOUND>
CCCCC1=NN(c2ccc(C(=O)O)cc2)C(=O)/C1=C\c1ccc(N2CCN(C)CC2)cc1

>  <IC50>
< 10 µM

$$$$
>  <COMPOUND>
CC1=NN(c2ccc(C(=O)N3CCCC3CO)cc2)C(=O)/C1=C\c1ccc2c(c1)OCCO2 (stereo not shown)

>  <IC50>
< 10 µM

$$$$
>  <COMPOUND>
CC1=NN(c2ccc(C(=O)O)cc2)C(=O)/C1=C\c1ccc(OCC(=O)N2CCOCC2)cc1

>  <IC50>
< 10 µM

$$$$
>  <COMPOUND>
COc1ccc(C2=NN(c3ccc(C(=O)O)cc3)C(=O)/C2=C\c2cccc3nccnc23)cc1OC

>  <IC50>
< 40 µM

$$$$
>  <COMPOUND>
CC1=NN(c2ccc(S(N)(=O)=O)cc2)C(=O)/C1=C\c1ccc2occc2c1

>  <IC50>
10 to 20 µM

$$$$
>  <COMPOUND>
CC1=NN(c2ccc(S(N)(=O)=O)cc2)C(=O)/C1=C\c1ccccc1OS(=O)(=O)c1ccc(C)cc1

>  <IC50>
10 to 20 µM

$$$$
>  <COMPOUND>
O=C(O)c1ccc(N2N=C(c3ccoc3)/C(=C/c3ccc(CO)o3)C2=O)cc1

>  <IC50>
< 10 µM

$$$$
>  <COMPOUND>
CC1=NN(c2cccc(C(=O)O)c2)C(=O)/C1=C\c1ccc(N2CCCC2CO)cc1 (stereo not shown)

>  <IC50>
10 to 20 µM

$$$$
>  <COMPOUND>
CC1=NN(c2ccc(C(=O)O)cc2)C(=O)/C1=C\c1ccc(S(=O)(=O)O)o1

>  <IC50>
10 to 20 µM

$$$$
>  <COMPOUND>
CC1=NN(c2ccc(S(N)(=O)=O)cc2)C(=O)/C1=C\c1ccc(N2CCCCC2)cc1

>  <IC50>
10 to 20 µM

$$$$
>  <COMPOUND>
CC1=NN(c2cccc(S(N)(=O)=O)c2)C(=O)/C1=C\c1cccc2cc[nH]c12

>  <IC50>
< 10 µM

$$$$
>  <COMPOUND>
CCCCC1=NN(c2ccccc2)C(=O)/C1=C\c1ccc(OCc2ccccc2)c(OC)c1

>  <IC50>
< 40 µM

$$$$
>  <COMPOUND>
CC1=NN(c2cccc(C(=O)N3CCC(C(=O)O)CC3)c2)C(=O)/C1=C\c1ccc2[nH]ccc2c1

>  <IC50>
< 10 µM

$$$$
